Values compiled from the supplement of paper PMC10567573.

B1: SLC35F2 (parent)
chain: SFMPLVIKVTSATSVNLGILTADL

variants of: B1; experiment: protein stability index of a GFP-peptide fusion (GPS, HEK-293T) (PSI 1-6); higher = more stable; settings: c terminus: a fixed tail appended;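 further: lentivirally expressed fusions sorted by FACS into six bins by GFP to DsRed ratio, PSI derived from sequencing read proportions per bin multiplied by bin number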
# cutoff 3 applies to protein stability index; >= gives Condition met, < gives Condition not met

Solved cases (3 shown):
Has SFMPLVIKVTSATSVNLGILTLDL [A22L] a recorded protein stability index greater than or equal to 3? Condition not met

Check the entry SFMPLVIKVTSATSVNLGVLTADL [I19V] : does protein stability index equal or exceed 3? Condition not met

Reported protein stability index at or above 3? SFMPLVIRVTSATSVNLGILTADL [K8R] Condition met

More entries:
Dear colleague, could you confirm whether SFRPLVIKVTSATSVNLGILTADL [M3R] has protein stability index at or above 3? Condition not met

Check this variant for protein stability index at or above 3: SFMPLVIKVTSATSVNLIILTADL [G18I] Condition met

Confirm if protein stability index reported for the variant SFMPLVIKVTSATSVRLGILTADL [N16R] is 3 or above. Condition met

Is the recorded value of protein stability index equal to or greater than 3 for this variant? SFMPLVIKVTSATSVNLGIWTADL [L20W] Condition met
